Entry source: patent US20250059179A1

measured_target: GDP-bound KRAS protein (aa 1-169), containing both G12D and C118A amino acid substitutions (Homo sapiens, UniProt P01116, C118A/G12D)
Sequence (P01116 1-169 isoform P01116-2 G12D/C118A): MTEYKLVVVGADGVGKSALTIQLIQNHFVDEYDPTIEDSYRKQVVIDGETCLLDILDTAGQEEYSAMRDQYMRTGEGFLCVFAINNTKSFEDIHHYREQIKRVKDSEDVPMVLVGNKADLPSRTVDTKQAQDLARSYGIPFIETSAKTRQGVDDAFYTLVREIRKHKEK
test_details: KRAS G12D Coupled Nucleotide Exchange Assay;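 note: IC50 obtained by fitting the AlphaScreen signal with a four-parameter logistic curve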
Assay type: biochemical
cond: 2 h compound pre-incubation; SOS-mediated nucleotide exchange, cRAF AlphaScreen readout
outcome_measure: Avg 2 h Coupled Exchange IC50 (nM)

A = CN1CCC[C@H]1COc1nc(C2=CCNCC2)c2cc(Cl)c(-c3cccc4sc(N)nc34)c(F)c2n1
B = Nc1nc2c(-c3c(Cl)cc4c(N5CCNCC5)nc(N5CC(N6C[C@H]7COC[C@@H](C6)N7)C5)nc4c3F)cccc2s1
In: Between A and B , which one shows the smaller Avg 2 h Coupled Exchange IC50 number? Mark your selection by writing its label.
Out: A
